Every entry's value here was drawn from ChEMBL document CHEMBL5038654.

# SYSTEM_TESTED: Mitogen-activated protein kinase kinase kinase kinase 1 (Homo sapiens)
# ASSAY_OVERVIEW: Inhibition of HPK1 (unknown origin) followed by anti-GST antibody incubated for 60 mins measured after 1 hr by TR-FRET based LanthaScreen Eu-Kinase binding assay
// assign label 1 if Ki falls strictly below 3 nM, else label 0 (ties count as label 0)

Study these solved cases before continuing.
[
  {
    "COMPOUND": "COc1ccccc1-c1c[nH]c2ncc(-c3ccc(N)c(C(=O)N(C)C)c3)cc12",
    "ASSIGNED_CLASS": "label 1"
  },
  {
    "COMPOUND": "CN(C)C(=O)c1c(N)ccc(-c2cnc3c(c2Cl)[C@]2(CC[C@](C)(O)CC2)CN3)c1F",
    "ASSIGNED_CLASS": "label 0"
  },
  {
    "COMPOUND": "CCc1c[nH]c2ncc(-c3ccc(N)c(C(=O)N(C)C)c3)c(CC)c12",
    "ASSIGNED_CLASS": "label 1"
  }
]

Request: Is Ki strictly under 3 nM for the entry CNC(=O)[C@H]1CC[C@@]2(CNc3ncc(-c4ccc(N)c(C(=O)N(C)C)c4F)c(Cl)c32)C1 (racemic) ?
Result: label 0

Request: Then `CCc1c[nH]c2ncc(-c3ccc(N)c(C(=O)N(C)C)c3)c(Cl)c12` ?
Result: label 1

###

Recorded measurements of log10(Ki), one per entry
# SYSTEM_TESTED: Mitogen-activated protein kinase kinase kinase kinase 1 (Homo sapiens, UniProt Q92918)
# Sequence (Q92918 whole entry): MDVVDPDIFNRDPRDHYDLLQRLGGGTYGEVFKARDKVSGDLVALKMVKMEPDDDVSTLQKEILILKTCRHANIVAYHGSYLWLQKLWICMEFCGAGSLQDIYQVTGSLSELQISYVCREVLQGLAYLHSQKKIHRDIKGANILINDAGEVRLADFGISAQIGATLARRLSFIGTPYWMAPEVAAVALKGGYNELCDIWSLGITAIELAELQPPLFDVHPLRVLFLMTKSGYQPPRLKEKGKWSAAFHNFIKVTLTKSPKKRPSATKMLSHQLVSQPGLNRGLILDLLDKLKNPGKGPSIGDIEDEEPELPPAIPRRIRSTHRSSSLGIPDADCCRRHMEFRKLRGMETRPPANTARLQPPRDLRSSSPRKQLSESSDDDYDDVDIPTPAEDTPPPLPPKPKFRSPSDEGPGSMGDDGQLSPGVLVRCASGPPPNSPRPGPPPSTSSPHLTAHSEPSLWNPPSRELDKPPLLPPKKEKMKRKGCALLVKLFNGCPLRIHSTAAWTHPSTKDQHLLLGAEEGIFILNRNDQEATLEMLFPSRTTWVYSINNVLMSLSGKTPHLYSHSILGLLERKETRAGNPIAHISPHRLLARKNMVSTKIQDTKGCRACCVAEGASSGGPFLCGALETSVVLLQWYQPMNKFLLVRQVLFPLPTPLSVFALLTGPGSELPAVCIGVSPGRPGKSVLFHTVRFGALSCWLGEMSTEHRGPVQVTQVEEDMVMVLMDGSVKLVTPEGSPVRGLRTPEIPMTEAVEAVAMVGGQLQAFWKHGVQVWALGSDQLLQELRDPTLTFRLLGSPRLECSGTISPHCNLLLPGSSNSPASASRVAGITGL
# ASSAY_OVERVIEW: Inhibition of HPK1 (unknown origin) followed by anti-GST antibody incubated for 60 mins measured after 1 hr by TR-FRET based LanthaScreen Eu-Kinase binding assay
For clarity, the numbers are log10 values of Ki expressed in nM.

[
  {
    "MOLECULE": "CN(C)C(=O)c1cc(-c2cnc3c(c2)C2(CC2)CN3)ccc1N",
    "log10(Ki)": 1.52
  },
  {
    "MOLECULE": "CN(C)C(=O)c1c(N)ccc(-c2cnc3c(c2Cl)[C@]2(CC[C@](C)(C(N)=O)C2)CN3)c1F",
    "log10(Ki)": -0.10
  },
  {
    "MOLECULE": "CCc1c[nH]c2ncc(-c3ccc(N)c(C(=O)N(C)C)c3)cc12",
    "log10(Ki)": 0.32
  },
  {
    "MOLECULE": "CCc1c[nH]c2ncc(-c3ccc(N)c(C(=O)N(C)C)c3)c(C)c12",
    "log10(Ki)": 0.38
  },
  {
    "MOLECULE": "CCc1c[nH]c2ncc(-c3cccc(C(=O)N(C)C)c3)cc12",
    "log10(Ki)": 0.72
  }
]

Request: Using the record for `CN(C)C(=O)c1c(N)ccc(-c2cnc3c(c2Cl)C2(CCCC2)CN3)c1F` , report its log10(Ki).
Result: 0.40

Request: Another molecule: `CN(C)C(=O)c1cc(-c2cnc3c(c2)C2(CCC2)CN3)ccc1N`
Result: 1.82

Request: Record: CN(C)C(=O)c1c(N)ccc(-c2cnc3c(c2Cl)[C@]2(CC[C@](C)(O)C2)CN3)c1F (racemic)
Result: 0.91

Request: # iterate: `CN(C)C(=O)c1cc(-c2cnc3[nH]ccc3c2)ccc1N`
Result: 0.18

Request: Check `CCc1c(Cl)[nH]c2ncc(-c3ccc(N)c(C(=O)N(C)C)c3)cc12` too.
Result: 0.43
